# Assayed target: UniProtKB P00722
# Test method notes: glycosidase inhibition, β-galactosidase (Escherichia coli)
# Type: biochemical
pIC50: −log10 of the molar value.
Endpoint label: pIC50

smiles_repr=N=C1[C@H](CO)[C@@H](O)[C@H](O)CN1Cc1ccccc1 experimental_value="< 4.30"

###

# Assayed target: β-galactosidase (Aspergillus oryzae)
# Test method notes: glycosidase inhibition, β-galactosidase (Aspergillus oryzae)
# Assay type: biochemical
pIC50: −log10 of the molar value.
Endpoint label: pIC50

smiles_repr=N=C1[C@H](CO)[C@@H](O)[C@H](O)CN1Cc1ccccc1 experimental_value="< 4.30"

###

# Assayed target: β-galactosidase (Aspergillus oryzae, UniProt Q2UCU3)
# Sequence (Q2UCU3 19-1005): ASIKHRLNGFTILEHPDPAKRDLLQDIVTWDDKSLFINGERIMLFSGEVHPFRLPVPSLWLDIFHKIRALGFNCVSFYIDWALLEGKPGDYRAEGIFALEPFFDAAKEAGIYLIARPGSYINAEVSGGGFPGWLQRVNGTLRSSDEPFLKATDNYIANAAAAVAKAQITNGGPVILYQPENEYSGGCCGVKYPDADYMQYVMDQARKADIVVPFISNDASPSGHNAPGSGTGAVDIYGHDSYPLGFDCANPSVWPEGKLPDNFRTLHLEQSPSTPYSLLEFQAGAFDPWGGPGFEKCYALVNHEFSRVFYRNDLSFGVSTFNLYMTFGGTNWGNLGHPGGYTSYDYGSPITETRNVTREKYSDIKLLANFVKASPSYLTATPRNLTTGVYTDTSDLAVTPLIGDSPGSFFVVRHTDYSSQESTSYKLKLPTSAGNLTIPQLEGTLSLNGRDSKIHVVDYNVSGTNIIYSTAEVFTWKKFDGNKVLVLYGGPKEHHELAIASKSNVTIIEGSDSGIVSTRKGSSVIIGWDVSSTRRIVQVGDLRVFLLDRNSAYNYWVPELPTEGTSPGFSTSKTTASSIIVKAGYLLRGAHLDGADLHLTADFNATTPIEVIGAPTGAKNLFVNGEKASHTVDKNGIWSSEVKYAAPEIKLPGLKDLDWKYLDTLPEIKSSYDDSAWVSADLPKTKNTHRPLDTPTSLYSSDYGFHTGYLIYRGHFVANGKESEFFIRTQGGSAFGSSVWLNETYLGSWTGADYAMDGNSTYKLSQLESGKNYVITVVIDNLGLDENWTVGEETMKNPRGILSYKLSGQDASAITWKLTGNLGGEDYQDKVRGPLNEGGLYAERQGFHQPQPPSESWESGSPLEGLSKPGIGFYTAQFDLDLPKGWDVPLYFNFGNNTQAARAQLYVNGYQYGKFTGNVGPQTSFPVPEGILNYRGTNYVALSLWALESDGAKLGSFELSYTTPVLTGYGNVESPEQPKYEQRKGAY
# Test method notes: glycosidase inhibition, β-galactosidase (Aspergillus oryzae)
# Type: biochemical
# Measurement context: β-galactosidase from Aspergillus oryzae, pH 6.8; read-out: IC50
pIC50: −log10 of the molar value.
Endpoint label: pIC50

compound="N=C1NC[C@@H](O)[C@H](O)[C@H]1CO [compound 5]" experimental_value="< 4.30"

###

# Assayed target: UniProt P00722
# Test method notes: glycosidase inhibition, β-galactosidase (Escherichia coli)
# Format: biochemical
# Measurement context: β-galactosidase from Escherichia coli, pH 6.8; read-out: IC50
pIC50: −log10 of the molar value.
Endpoint label: pIC50

smiles_repr=N=C1NC[C@@H](O)[C@H](O)[C@H]1CO endpoint_label=pIC50 experimental_value="< 4.30"

###

# Assayed target: α-mannosidase (Canavalia ensiformis)
# Sequence (C0HJB3 whole entry): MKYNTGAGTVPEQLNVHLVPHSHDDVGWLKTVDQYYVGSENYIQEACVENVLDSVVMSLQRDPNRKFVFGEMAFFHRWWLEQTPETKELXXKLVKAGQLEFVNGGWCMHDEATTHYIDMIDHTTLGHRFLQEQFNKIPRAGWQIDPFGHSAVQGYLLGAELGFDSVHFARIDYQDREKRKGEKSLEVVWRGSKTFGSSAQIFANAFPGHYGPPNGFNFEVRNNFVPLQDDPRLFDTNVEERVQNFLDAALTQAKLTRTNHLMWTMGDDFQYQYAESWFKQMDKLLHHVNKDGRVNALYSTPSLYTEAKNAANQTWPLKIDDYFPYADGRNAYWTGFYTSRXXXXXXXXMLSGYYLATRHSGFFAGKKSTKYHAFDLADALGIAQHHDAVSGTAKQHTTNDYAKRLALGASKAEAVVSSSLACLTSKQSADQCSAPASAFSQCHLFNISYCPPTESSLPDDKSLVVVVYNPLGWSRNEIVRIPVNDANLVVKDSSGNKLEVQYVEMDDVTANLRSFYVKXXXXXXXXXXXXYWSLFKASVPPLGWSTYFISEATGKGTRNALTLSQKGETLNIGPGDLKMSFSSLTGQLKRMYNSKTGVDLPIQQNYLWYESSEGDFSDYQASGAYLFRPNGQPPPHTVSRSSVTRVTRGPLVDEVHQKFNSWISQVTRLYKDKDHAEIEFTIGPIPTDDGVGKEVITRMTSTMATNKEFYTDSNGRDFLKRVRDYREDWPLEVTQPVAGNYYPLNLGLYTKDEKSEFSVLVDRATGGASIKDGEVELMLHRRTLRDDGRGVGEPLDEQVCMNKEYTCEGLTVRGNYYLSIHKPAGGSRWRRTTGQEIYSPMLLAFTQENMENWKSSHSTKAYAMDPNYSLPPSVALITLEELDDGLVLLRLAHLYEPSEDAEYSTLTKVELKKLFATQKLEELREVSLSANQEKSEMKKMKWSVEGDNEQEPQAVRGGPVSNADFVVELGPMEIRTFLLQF
# Test method notes: glycosidase inhibition, α-mannosidase
# Assay type: biochemical
# Measurement context: α-mannosidase from jack beans, pH 5.6
Form field: IC50 (one value per entry).
Endpoint label: IC50

smiles_repr=N=C1[C@H](CO)[C@@H](O)[C@H](O)CN1Cc1ccccc1 experimental_value="> 50 µM"
smiles_repr=N=C1NC[C@@H](O)[C@H](O)[C@H]1CO experimental_value="> 50 µM"

###

# Test method notes: pKa determination by NMR titration in D2O
# Format: physicochemical
# Measurement context: D2O, inflection point of 2-Ha chemical shift versus pH* (pH measured in D2O); read-out: pKa*
Endpoint label: pKa

smiles_repr=N=C1[C@H](CO)[C@@H](O)[C@H](O)CN1Cc1ccccc1 experimental_value="> 11"

###

# Assayed target: α-galactosidase (Coffea arabica, UniProt Q42656)
# Sequence (Q42656 16-378): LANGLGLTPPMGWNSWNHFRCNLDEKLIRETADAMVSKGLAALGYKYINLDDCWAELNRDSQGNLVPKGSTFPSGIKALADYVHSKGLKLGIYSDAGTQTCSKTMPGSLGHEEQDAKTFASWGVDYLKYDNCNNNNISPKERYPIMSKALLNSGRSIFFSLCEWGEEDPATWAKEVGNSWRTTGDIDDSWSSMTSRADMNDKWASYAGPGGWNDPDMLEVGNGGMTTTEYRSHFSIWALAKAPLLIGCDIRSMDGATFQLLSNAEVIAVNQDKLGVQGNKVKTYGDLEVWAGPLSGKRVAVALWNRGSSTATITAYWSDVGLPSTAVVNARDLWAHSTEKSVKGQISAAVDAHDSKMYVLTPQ
# Test method notes: glycosidase inhibition, α-galactosidase
# Assay type: biochemical
Endpoint label: IC50

compound="N=C1[C@H](CO)[C@@H](O)[C@H](O)CN1Cc1ccccc1 [compound 6]" endpoint_label=IC50 experimental_value="> 50 µM"

###

# Test method notes: pKa determination by NMR titration in D2O
# Assay type: physicochemical
# Measurement context: D2O, pKa* corrected with a correction factor; read-out: pKa (corrected)
Endpoint label: pKa

smiles_repr=N=C1[C@H](CO)[C@@H](O)[C@H](O)CN1Cc1ccccc1 endpoint_label=pKa experimental_value="> 10.6"
